Reported TGI values for the following compounds.
system: HS 578T breast; experiment: NCI tumour cell line growth inhibition, 48 h

| molecularString | TGI |
| --- | --- |
| CN(C)c1nc(=NCc2ccccn2)ss1 | > 10 µM |
| CCN(C(=O)N[C@H](C(=O)N[C@@H](C)C(=O)OC)C(C)C)c1ccccc1 | > 100 µM |
| N/C(CSCCSC/C(N)=N/O)=N\O | > 100 µM |

---

Reported TGI values for the following compounds.
test system: NCI-H23 lung; experiment: NCI tumour cell line growth inhibition, 48 h

| compound | TGI |
| --- | --- |
| COc1ccc(C2=NC(C)(C)CO2)cc1 | > 100 µM |
| CCOC(=O)[C@@H](C)C[C@H](Cc1ccccc1)NC(=O)c1csc([C@@H](C[C@H](C(C)C)N(C)C(=O)[C@@H](NC(=O)[C@H]2CCCCN2C)C(C)(C)C)OC(C)=O)n1 | > 16.7 µM |
| COc1ccc(CCCCl)c(C2=NCCc3ccccc32)c1 | > 100 µM |
| C=C1CC=CC(C)(C)C1C/C=C(\C)C(O)CBr (centres undefined) | > 100 µM |

---

system: OVCAR-4 ovarian; experiment: NCI tumour cell line growth inhibition, 48 h
Reported TGI values for the following molecules.

| molecule | TGI |
| --- | --- |
| CCNC(=S)N/N=C/c1ccccn1 | 4.98 µM |
| CC1(C)OC(CCO)CN1C(=O)OCc1ccccc1 (stereo unspecified) | > 100 µM |
| COc1ccc(C2C(C#N)=C(N)OC3=C2CCCc2ccc(F)cc23)cc1OC (stereo unspecified) | 68 µM |
| Brc1ccc2c(c1)-c1nc3c(cc1CC2)CCc1ccc(Br)cc1-3 | > 100 µM |
| Cc1ncc(NC(=O)c2ccc(CN3CCN(C)CC3)c(C(F)(F)F)c2)cc1Nc1nccc(-c2cccnc2)n1 | 29.4 µM |
| CCc1cc(=O)n(/C(C)=C/c2ccccc2)n1C | > 100 µM |
| O=C1N[C@@H](O)[C@@H]2ON=C(c3ccccc3)[C@H]12 | > 100 µM |
| CCOC(=O)[C@@H](C)C[C@H](Cc1ccccc1)NC(=O)c1csc([C@@H](C[C@H](C(C)C)N(C)C(=O)[C@@H](NC(=O)[C@H]2CCCCN2C)C(C)(C)C)OC(C)=O)n1 | > 16.7 µM |
| C=CC(=O)Nc1cccc(Nc2nc(Nc3ccc(OCCOC)cc3)ncc2F)c1 | 17.1 µM |
| C=C1C(=O)O[C@H]2[C@H]1CC/C(COC(=O)c1cc3cc(OC)ccc3[nH]1)=C\CC[C@@]1(C)O[C@@H]21 | 3.24 µM |
| O=C1c2ccccc2-c2cccc3ccc(Cc4ccccc4)c1c23 | > 100 µM |
| N/C(CSCCSC/C(N)=N/O)=N\O | > 100 µM |
| O=C(NCCCNCCCCNCCCNC(=O)C(F)(F)F)C(F)(F)F | > 100 µM |
| O=C1CCn2c([nH]c3cccc4cccc2c43)=N1 | > 100 µM |
| COc1cc(/C=C/C(=O)O)ccc1OS(=O)(=O)O | > 100 µM |
| CCCSc1cc(Cl)nc(N)n1 | > 100 µM |

---

Reported TGI values for the following molecules.
system: SNB-75 CNS; assay: NCI tumour cell line growth inhibition, 48 h

| molecule | TGI |
| --- | --- |
| CCOC(=O)/C(=C/c1ccco1)P(=O)(OCC)OCC | > 100 µM |
| CC/C=C\C/C=C\C1CC(=O)NCCCNCCCCN1 (stereo not drawn) | > 100 µM |
| O=C(CN=C(CN(c1ccccc1)c1ccccc1)Oc1c(Cl)cc(Cl)cc1Cl)n1cnc2ccccc21 | > 100 µM |
| COC(=O)NC/C=C\c1nc(CC/C=C\C(=O)OC2CC3CC(=O)O[C@@H](/C=C/CC(C)C)C[C@@H]4CCC(C)C(C[C@@H](OC)CC(C2)O3)O4)co1 (stereo partly drawn) | > 100 µM |
| COC(=O)c1sc2ncc3c(c2c1N)CC(C)CC3 (stereo not drawn) | > 100 µM |
| COP(=O)(CC(=O)C1OC(OCc2ccccc2)C(OCc2ccccc2)C(OCc2ccccc2)C1OCc1ccccc1)OC (stereo not drawn) | 92.3 µM |
| C[C@H]1CCC/C=C/[C@@H]2C[C@H](N)C[C@H]2[C@H](O)/C=C/C(=O)O1 | > 100 µM |
| CC(=O)[CH-]C(C)=O.CC(=O)[CH-]C(C)=O.N=CC=N.[Sn+2] | 13.7 µM |
| COc1ccc(CN2C(=O)C(=O)N(C)C2=O)c2ccccc12 | > 10 µM |
| COc1ccc(CCCCl)c(C2=NCCc3ccccc32)c1 | > 100 µM |
| CC1(C)[C@@H]2C[C@H]1c1cnc(-c3ccccn3)cc1[C@H]2C(O)[C@@H]1c2cc(-c3ccccn3)ncc2[C@H]2C[C@@H]1C2(C)C (stereo partly drawn) | 87.3 µM |
| O=C1NC(=S)S/C1=C/c1ccco1 | > 100 µM |
| COC(=O)c1cc(C(=O)OC)cc(-c2ccc3c(c2)-c2nc4c(c(-c5ccc(OC)cc5)c2CC3)CCc2ccc(-c3cc(C(=O)OC)cc(C(=O)OC)c3)cc2-4)c1 | > 100 µM |

---

system: HCT-15 colon; assay: NCI tumour cell line growth inhibition, 48 h
Reported TGI values for the following molecules.
endpointLabel: TGI

| molecule | result |
| --- | --- |
| CCC1(CC)C(=O)NC(=S)N=C1N | > 100 µM |
| N#Cc1c(N)c(C(=O)O)nn(-c2cccc(C(F)(F)F)c2)c1=O | > 100 µM |
| CCOC(=O)C(NC(=O)c1ccc(N=NN(C)C)cc1)C(C)C (stereo not drawn) | > 100 µM |
| Cc1ccc(-c2nc(C(Cl)Cl)n3nc(-c4ccccc4)cc3n2)cc1 | 1.12 µM |
| O=C1c2c(c3c4ccc(Br)cc4oc3c3[nH]c4ccccc4c23)C(=O)N1O | > 100 µM |
| COC(=O)c1sc2ncc3c(c2c1N)CC(C)CC3 (stereo not drawn) | > 100 µM |
| CN(C)C(=S)/N=c1\ss/c(=N\S(=O)(=O)c2ccccc2)n1-c1ccccc1 | > 100 µM |
| COc1cc(/C=C2\CC3C4CC=C5CC(N6CCCC6)CC[C@]5(C)C4CC[C@]3(C)C2OC(C)=O)ccc1OCCN1CCCC1 (stereo partly drawn) | 3.4 µM |

---

Reported TGI values for the following compounds.
test system: NCI-H23 lung; test: NCI tumour cell line growth inhibition, 48 h
endpointLabel: TGI

| molecularString | result |
| --- | --- |
| CCCC[C@@H]1CCN2C[C@@H](O)[C@@H](O)[C@H]2[C@@H]1O | > 100 µM |
| COc1cc2c3c(n(C)c(=O)c2cc1OC)-c1cc2c(cc1/C3=C/CCCCBr)OCO2 | > 100 µM |
| CCc1cc(=O)n(/C(C)=C/c2ccccc2)n1C | > 100 µM |

---

test system: HL-60(TB) leukemia; experiment: NCI tumour cell line growth inhibition, 48 h

| compound | assayTarget | TGI |
| --- | --- | --- |
| CC1=Nc2c(ccc3c2C(=O)c2ccccc2C3=O)NC(c2ccncc2)C1 (stereo not given) | HL-60(TB) leukemia | > 100 µM |
| CN1CCN(Cc2ccc(NC(=O)c3ccc(C(C)(C)C)c(C#Cc4cnc5cccnn45)c3)cc2C(F)(F)F)CC1 | HL-60(TB) leukemia | 6.5 µM |
| CCC1C(=O)OCc2c1cc1n(c2=O)CCC12OCCO2 (stereo not given) | HL-60(TB) leukemia | > 100 µM |
| Clc1ccc(CNc2nc3ccccc3nc2-c2cccs2)c(Cl)c1 | HL-60(TB) leukemia | > 100 µM |
| CC/C=C\C/C=C\C1CC(=O)NCCCNCCCCN1 (stereo not given) | HL-60(TB) leukemia | > 100 µM |
| COc1cc2c3c(n(CCCN4CCC(N)CC4)c(=O)c2cc1OC)-c1cc2c(cc1C3=O)OCO2 | HL-60(TB) leukemia | 7.87 µM |
| COC(=O)[C@H]1C=C[C@H](OC2OC(COC(C)=O)C(OC(C)=O)C(OC(C)=O)C2OC(C)=O)n2c(=O)n(-c3ccccc3)c(=O)n21 (stereo not given in full) | HL-60(TB) leukemia | > 100 µM |
| OCC1OC(O[C@H]2CN3[C@H](O)[C@@H](O)[C@H](O)[C@H]3C2O)C(O)C(O)C1O (stereo not given in full) | HL-60(TB) leukemia | > 100 µM |
| Cc1cn(C2CC(OC(c3ccccc3)(c3ccccc3)c3ccccc3)C(COC(c3ccccc3)(c3ccccc3)c3ccccc3)O2)c(=O)[nH]c1=O (stereo not given) | HL-60(TB) leukemia | > 100 µM |
| CC(C)(C)c1nc2c(o1)C(=Nc1ccc(F)cc1)c1ccccc1C2=O | HL-60(TB) leukemia | > 44.9 µM |
| CNc1ccc2c(c1)Cc1ccccc1-2 | HL-60(TB) leukemia | > 100 µM |
| NS(=O)(=O)c1ccc(NC(=O)c2cccc3c(=O)c4ccccc4[nH]c23)cc1 | HL-60(TB) leukemia | > 100 µM |
| CCCS(=O)(=O)c1nc(NC2CC2)cc(-c2ccc3c(ccn3C3CC(C)(C)NC(C)(C)C3)c2)n1 | HL-60(TB) leukemia | 3.73 µM |
| C=CC(=O)Nc1cccc(Nc2nc(Nc3ccc(OCCOC)cc3)ncc2F)c1 | HL-60(TB) leukemia | 41.7 µM |
| COc1ccc2c(c1)[C@@]13CCN4CC5=CCO[C@H]6CC(=O)N2[C@H]1[C@H]6[C@H]5C[C@H]43 | HL-60(TB) leukemia | > 100 µM |
